- MEASURED ON: Ubiquitin-conjugating enzyme E2 N (Homo sapiens) (UniProt P61088)
- Sequence (P61088 whole entry, looked up): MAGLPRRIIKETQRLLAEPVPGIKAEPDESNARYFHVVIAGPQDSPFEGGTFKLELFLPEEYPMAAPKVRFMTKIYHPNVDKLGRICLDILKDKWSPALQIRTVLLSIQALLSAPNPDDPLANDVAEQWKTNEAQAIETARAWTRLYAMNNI
- EXPERIMENT DESCRIPTION: UBE2N binders by NMR, biophysical, purified protein (AID 1552)
- RUN PARAMETERS: NMR binding to purified UBE2N
The source made the active and inactive calls. The rule behind the calls is not given here.
MEASURED PROPERTY: Kd

Here are 4 molecules together with their reported answers.
MOLECULE	Kd
O=C(c1ccco1)N1CCN(Cc2cccc(F)c2)CC1	> 4 mM (inactive)
Cc1cccn2cc(CNc3ccccc3)nc12	> 4 mM (inactive)
CSc1nnc2ccc(-c3cccnc3)nn12	> 4 mM (inactive)
CC1(NC(=O)NCc2ccccc2)CCS(=O)(=O)C1 (stereo unspecified)	> 4 mM (inactive)

What value of measured Kd is listed for O=C(O)C(O)C(O)C(O)C(O)C(=O)O (stereo unspecified) ?
> 4 mM (inactive)

Entry under review: CCNS(=O)(=O)c1cc(Br)ccc1OC . Reported Kd?
> 4 mM (inactive)

Which value of Kd has been reported for Nc1c2c3c(sc2nc(=O)n1N)CCCC3 in the records?
> 4 mM (inactive)

Which measured Kd value corresponds to CC1=CC(=O)C2C(C)(C)CCC[C@]2(C)[C@@]1(O)CCc1ccoc1 (stereo partly specified) ?
> 4 mM (inactive)

# lookup: Kd of CC(C)NC(=O)c1cc(=O)n(C)c(=O)n1C
> 4 mM (inactive)

Param item = O=C1C(=O)N(CNc2ncccn2)c2ccccc21 ; retrieve measured Kd.
> 4 mM (inactive)

// lookup Kd for COc1ccc2c(c1)c1n[nH]c(=S)nc1n2C
> 4 mM (inactive)

Look at this molecule and give its reported Kd. CCOC(=O)c1c(C)nc2cc(C)ccn12
> 4 mM (inactive)

I have this molecule here, CCn1nnc(NC(=O)c2cc3ccccc3o2)n1 , and I need its recorded Kd.
> 4 mM (inactive)

Suppose we examine the molecule Brc1ccc(-c2nc(-c3ccncc3)no2)o1 ; what Kd value has been reported?
> 4 mM (inactive)

Bench note: what Kd did CCc1noc(C)c1C(=O)Nc1ncc(C)s1 show?
> 4 mM (inactive)

Which Kd reading was recorded for the molecule O=C(Nc1nnc(C(F)(F)F)s1)c1cccnc1 ?
> 4 mM (inactive)

Fill blank: measured Kd of the molecule Nc1ccccc1OC(F)(F)F is ____.
> 4 mM (inactive)

====

Measured Kd of individual entries
- MEASURED ON: UniProt:P61088
- EXPERIMENT DESCRIPTION: UBE2N binders by NMR, biophysical, purified protein (AID 1552)
- RUN PARAMETERS: NMR binding to purified UBE2N
Calls of active or inactive are those of the source. No rule for the calls is given here.

# count of solved cases: 5
COMPOUND	MEASURED ON	RESULT
S=C(NCc1ccco1)NN1CCOCC1	UniProt:P61088	> 4 mM (inactive)
Cc1cc(N)on1	UniProt:P61088	> 4 mM (inactive)
COCCn1c(N)nc2c1c(=O)[nH]c(=O)n2C	UniProt:P61088	> 4 mM (inactive)
COc1ccc2ccc(=O)oc2c1CC=C(C)C	UniProt:P61088	> 4 mM (inactive)
N/N=C1\CCCc2c1no[n+]2[O-]	UniProt:P61088	> 4 mM (inactive)

Now look at this one.
# get_value(readout= Kd, system= UniProt:P61088) for Nc1cccnc1Oc1ccc(F)cc1F
> 4 mM (inactive)
